- assayed.target: UniProt:P10980
- experiment: Displacement of [3H]QNB from muscarinic M2 receptor in rat brain homogenates at 1 uM after 60 mins relative to control
- Format: tissue-based
Returns one of T or F; T when inhibition is >= 70%.

Incoming: Given `CN(C)Cc1ccc(CSCCNc2nnc(-c3ccccc3)cc2[N+](=O)[O-])o1` , state whether its inhibition is at least 70%.
Outgoing: F

Incoming: Given `CN(C)Cc1ccc(CSCCN/C(=C/[N+](=O)[O-])N/N=C/c2ccccc2)o1` , state whether its inhibition is at least 70%.
Outgoing: F

Incoming: Given `Cc1cc([N+](=O)[O-])c(NCCSCc2ccc(CN(C)C)o2)nn1` , state whether its inhibition is at least 70%.
Outgoing: T

Incoming: Given `Cc1cccc(Nc2ccccc2C(=O)NCCSCc2ccc(CN(C)C)o2)c1C` , state whether its inhibition is at least 70%.
Outgoing: F

Incoming: Given `C=C1C(C)=NN/C(=C\[N+](=O)[O-])N1CCSCc1ccc(CN(C)C)o1` , state whether its inhibition is at least 70%.
Outgoing: T

====

- assayed.target: UniProt:P10980
- Sequence (whole entry): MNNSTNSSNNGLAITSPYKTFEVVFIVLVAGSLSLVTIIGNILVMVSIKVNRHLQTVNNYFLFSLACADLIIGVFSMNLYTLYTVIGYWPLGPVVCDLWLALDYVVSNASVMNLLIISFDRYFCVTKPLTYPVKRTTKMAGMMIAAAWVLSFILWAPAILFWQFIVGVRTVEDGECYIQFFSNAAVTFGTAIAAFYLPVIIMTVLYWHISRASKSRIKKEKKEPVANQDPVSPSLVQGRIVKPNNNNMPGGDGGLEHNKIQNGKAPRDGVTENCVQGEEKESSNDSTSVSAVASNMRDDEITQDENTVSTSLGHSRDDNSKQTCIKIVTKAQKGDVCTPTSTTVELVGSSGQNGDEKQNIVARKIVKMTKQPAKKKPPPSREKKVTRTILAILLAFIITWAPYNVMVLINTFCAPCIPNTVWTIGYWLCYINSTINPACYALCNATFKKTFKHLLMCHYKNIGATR
- experiment: Displacement of [3H]QNB from muscarinic M2 receptor in rat brain homogenates at 1 uM after 60 mins relative to control
- Type: tissue-based
Kindly supply the reported inhibition values for the records listed here.
# value in %; strip the unit string

Incoming: Determine from records and report inhibition for `CN(C)Cc1ccc(CSCCNc2ncccn2)o1`
Outgoing: 50.8

Incoming: Determine from records and report inhibition for `Cc1nnc(NCCSCc2ccc(CN(C)C)o2)c([N+](=O)[O-])c1C`
Outgoing: 63

Incoming: Determine from records and report inhibition for `CN(C)Cc1ccc(CSCCNc2ccc(Cl)nn2)o1`
Outgoing: 9.8

Incoming: Determine from records and report inhibition for `CN(C)Cc1ccc(CSCCNC(=O)Cc2ccccc2Nc2c(Cl)cccc2Cl)o1`
Outgoing: 27.4

Incoming: Determine from records and report inhibition for `CN(C)Cc1ccc(CSCCNc2nncc(-c3ccccc3)c2[N+](=O)[O-])o1`
Outgoing: 37

Incoming: Determine from records and report inhibition for `Cc1nnc(NCCSCc2ccc(CN(C)C)o2)c([N+](=O)[O-])c1-c1ccccc1`
Outgoing: 40

====

Kindly supply the reported pIC50 values for the records listed here.
- assayed.target: Acetylcholinesterase (Electrophorus electricus)
- Sequence (O42275 whole entry): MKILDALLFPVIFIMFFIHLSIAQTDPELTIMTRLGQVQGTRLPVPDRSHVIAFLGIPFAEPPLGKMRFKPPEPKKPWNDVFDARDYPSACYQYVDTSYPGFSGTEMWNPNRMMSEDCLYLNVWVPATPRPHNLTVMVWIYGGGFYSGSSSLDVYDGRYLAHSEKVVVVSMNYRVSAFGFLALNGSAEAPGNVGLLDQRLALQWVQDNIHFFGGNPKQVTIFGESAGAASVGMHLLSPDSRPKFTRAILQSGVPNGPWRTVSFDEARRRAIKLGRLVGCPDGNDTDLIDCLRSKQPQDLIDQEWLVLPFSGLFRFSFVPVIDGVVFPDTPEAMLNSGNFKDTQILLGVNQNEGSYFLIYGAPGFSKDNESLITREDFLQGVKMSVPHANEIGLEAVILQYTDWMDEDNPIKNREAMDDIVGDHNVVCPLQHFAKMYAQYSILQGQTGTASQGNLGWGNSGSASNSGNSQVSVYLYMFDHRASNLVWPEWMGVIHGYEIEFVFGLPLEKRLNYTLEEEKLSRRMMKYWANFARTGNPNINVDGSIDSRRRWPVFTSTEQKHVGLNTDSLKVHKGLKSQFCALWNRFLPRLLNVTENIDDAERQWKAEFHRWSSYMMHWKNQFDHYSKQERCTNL
Scale note: pIC50 = -log10(concentration in M).

Incoming: Determine from records and report pIC50 for `Cc1c(-c2ccccc2)nnc(NCCSCc2ccc(CN(C)C)o2)c1[N+](=O)[O-]`
Outgoing: 6.80

Incoming: Determine from records and report pIC50 for CC1CC(=O)N(CCSCc2ccc(CN(C)C)o2)C1=O (stereo unspecified)
Outgoing: 4.48

Incoming: Determine from records and report pIC50 for `CN(C)Cc1ccc(CSCCN2C(=O)c3ccc([N+](=O)[O-])cc3C2=O)o1`
Outgoing: 4.34

Incoming: Determine from records and report pIC50 for `CN(C)Cc1ccc(CSCCNc2ccc(Cl)nn2)o1`
Outgoing: 4.98

Incoming: Determine from records and report pIC50 for `CN(C)Cc1ccc(CSCCN/C(=C/[N+](=O)[O-])N/N=C/c2ccccc2)o1`
Outgoing: 5.93

Incoming: Determine from records and report pIC50 for `CN(C)Cc1ccc(CSCCNc2nnc(-c3cccs3)c(-c3cccs3)c2[N+](=O)[O-])o1`
Outgoing: 6.46

Incoming: Determine from records and report pIC50 for `CN(C)Cc1ccc(CSCCN/C(=C/[N+](=O)[O-])N2CCCCC2)o1`
Outgoing: 5.39

Incoming: Determine from records and report pIC50 for `CN(C)Cc1ccc(CSCCNc2ncccn2)o1`
Outgoing: 4.79

Incoming: Determine from records and report pIC50 for `CN(C)Cc1ccc(CSCCN2C(=O)c3ccccc3C2=O)o1`
Outgoing: 5.45

====

- assayed.target: Cholinesterase (Equus caballus, UniProt P81908)
- Sequence (P81908 whole entry): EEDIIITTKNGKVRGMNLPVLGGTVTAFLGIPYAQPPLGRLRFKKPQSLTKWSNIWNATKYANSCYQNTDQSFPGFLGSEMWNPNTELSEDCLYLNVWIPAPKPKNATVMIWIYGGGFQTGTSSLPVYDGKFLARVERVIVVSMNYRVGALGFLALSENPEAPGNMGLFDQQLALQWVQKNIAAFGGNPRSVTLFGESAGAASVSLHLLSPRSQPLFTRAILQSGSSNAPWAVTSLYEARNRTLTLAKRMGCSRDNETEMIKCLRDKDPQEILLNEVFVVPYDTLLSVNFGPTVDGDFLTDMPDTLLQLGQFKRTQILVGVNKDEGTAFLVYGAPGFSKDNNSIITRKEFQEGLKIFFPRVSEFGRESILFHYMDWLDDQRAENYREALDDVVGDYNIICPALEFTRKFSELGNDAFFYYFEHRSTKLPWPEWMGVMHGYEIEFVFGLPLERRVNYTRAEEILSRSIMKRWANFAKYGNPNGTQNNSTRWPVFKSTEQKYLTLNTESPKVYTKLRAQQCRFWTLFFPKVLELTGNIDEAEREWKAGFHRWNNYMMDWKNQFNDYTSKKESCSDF
- experiment: Inhibition of equine serum BuChE using butyrylthiocholine as substrate preincubated for 8 mins followed by substrate addition by Ellman's method
pIC50: −log10 of the molar value.
Returns one of 1 or 0; 1 when pIC50 is >= 5.

Incoming: Given `Cc1cccc(Nc2ccccc2C(=O)NCCSCc2ccc(CN(C)C)o2)c1C` , state whether its pIC50 is at least 5.
Outgoing: 0

Incoming: Given `CN(C)Cc1ccc(CSCCNc2nnc(-c3ccccc3)cc2[N+](=O)[O-])o1` , state whether its pIC50 is at least 5.
Outgoing: 1

Incoming: Given `CN(C)Cc1ccc(CSCCNc2nncc(-c3ccccc3)c2[N+](=O)[O-])o1` , state whether its pIC50 is at least 5.
Outgoing: 0

Incoming: Given `CN(C)Cc1ccc(CSCCN2C(=O)c3ccc([N+](=O)[O-])cc3C2=O)o1` , state whether its pIC50 is at least 5.
Outgoing: 0

Incoming: Given `CN(C)Cc1ccc(CSCCN/C(=C/[N+](=O)[O-])N2CCCCC2)o1` , state whether its pIC50 is at least 5.
Outgoing: 0

Incoming: Given `Cc1cc([N+](=O)[O-])c(NCCSCc2ccc(CN(C)C)o2)nn1` , state whether its pIC50 is at least 5.
Outgoing: 0

Incoming: Given `CN(C)Cc1ccc(CSCCNc2nnc(-c3ccccc3)c(-c3ccccc3)c2[N+](=O)[O-])o1` , state whether its pIC50 is at least 5.
Outgoing: 1

Incoming: Given `CN(C)Cc1ccc(CSCCNc2nc(N)no2)o1` , state whether its pIC50 is at least 5.
Outgoing: 0

====

- assayed.target: UniProtKB P08485
- Sequence (P08485 whole entry): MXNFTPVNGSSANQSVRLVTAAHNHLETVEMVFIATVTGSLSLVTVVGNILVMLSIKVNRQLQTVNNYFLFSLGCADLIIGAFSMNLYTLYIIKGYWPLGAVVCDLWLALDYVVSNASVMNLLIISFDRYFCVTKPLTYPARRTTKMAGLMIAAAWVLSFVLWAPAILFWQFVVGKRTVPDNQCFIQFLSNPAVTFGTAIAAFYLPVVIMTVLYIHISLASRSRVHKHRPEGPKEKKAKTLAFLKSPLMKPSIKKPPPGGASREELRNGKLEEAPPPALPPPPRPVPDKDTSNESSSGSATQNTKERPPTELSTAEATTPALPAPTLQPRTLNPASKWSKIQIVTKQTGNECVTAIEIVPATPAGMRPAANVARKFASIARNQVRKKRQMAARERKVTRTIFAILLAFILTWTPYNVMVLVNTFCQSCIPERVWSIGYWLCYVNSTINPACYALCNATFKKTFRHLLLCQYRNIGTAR
- experiment: Displacement of [3H]QNB from muscarinic M4 receptor in rat brain homogenates at 1 uM after 60 mins relative to control
- Assay type: tissue-based
outcome.measure: inhibition (%)
# value in %; strip the unit string

Incoming: Determine from records and report inhibition for `C=C1C(C)=NN/C(=C\[N+](=O)[O-])N1CCSCc1ccc(CN(C)C)o1`
Outgoing: 92.1

Incoming: Determine from records and report inhibition for `CN(C)Cc1ccc(CSCCNC(=O)Cc2ccccc2Nc2c(Cl)cccc2Cl)o1`
Outgoing: 47.3

Incoming: Determine from records and report inhibition for `Cc1c(-c2ccccc2)nnc(NCCSCc2ccc(CN(C)C)o2)c1[N+](=O)[O-]`
Outgoing: 58

Incoming: Determine from records and report inhibition for `Cc1cccc(Nc2ccccc2C(=O)NCCSCc2ccc(CN(C)C)o2)c1C`
Outgoing: 33.8

Incoming: Determine from records and report inhibition for `Cc1nnc(NCCSCc2ccc(CN(C)C)o2)c([N+](=O)[O-])c1C`
Outgoing: 67

Incoming: Determine from records and report inhibition for `CN(C)Cc1ccc(CSCCNc2nnccc2[N+](=O)[O-])o1`
Outgoing: 74

Incoming: Determine from records and report inhibition for `CS/C(=N\S(=O)(=O)c1ccc(C)cc1)NCCSCc1ccc(CN(C)C)o1`
Outgoing: 4.2

====

pIC50, Acetylcholinesterase (Electrophorus electricus): measured values
Scale note: pIC50 = -log10(concentration in M).

Incoming: Determine from records and report pIC50 for `CN(C)Cc1ccc(CSCCN2C(=O)c3cccc4cccc(c34)C2=O)o1`
Outgoing: 5.90

Incoming: Determine from records and report pIC50 for `CN(C)Cc1ccc(CSCCNc2ncccc2C#N)o1`
Outgoing: 5.27

Incoming: Determine from records and report pIC50 for `CN(C)Cc1ccc(CSCCN2C(=O)c3cccc4cc([N+](=O)[O-])cc(c34)C2=O)o1`
Outgoing: 6.82

Incoming: Determine from records and report pIC50 for `CN(C)Cc1ccc(CSCCNc2nnc(-c3ccccc3)cc2[N+](=O)[O-])o1`
Outgoing: 6.59

Incoming: Determine from records and report pIC50 for `CN(C)Cc1ccc(CSCCN2C(=O)CCC2=O)o1`
Outgoing: 4.93

Incoming: Determine from records and report pIC50 for `C=C1C(C)=NN/C(=C\[N+](=O)[O-])N1CCSCc1ccc(CN(C)C)o1`
Outgoing: 5.78

Incoming: Determine from records and report pIC50 for `Cc1cc([N+](=O)[O-])c(NCCSCc2ccc(CN(C)C)o2)nn1`
Outgoing: 6.17

Incoming: Determine from records and report pIC50 for `CCc1nnc(NCCSCc2ccc(CN(C)C)o2)c([N+](=O)[O-])c1CC`
Outgoing: 5.60

Incoming: Determine from records and report pIC50 for `CN(C)Cc1ccc(CSCCNc2nncc(-c3ccccc3)c2[N+](=O)[O-])o1`
Outgoing: 6.34
